B1: Azoarcus group I ribozyme (parent)
chain: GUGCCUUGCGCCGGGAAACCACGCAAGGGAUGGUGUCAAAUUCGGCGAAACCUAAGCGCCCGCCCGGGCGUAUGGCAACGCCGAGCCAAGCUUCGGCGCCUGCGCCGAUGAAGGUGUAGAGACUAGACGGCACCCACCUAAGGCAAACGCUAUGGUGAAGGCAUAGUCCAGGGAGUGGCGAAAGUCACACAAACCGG

Variants of: B1
Test: reverse-splicing fitness (ratio to wild type); higher = more active; in vitro selection; Mg2+ level not given
Use 0.008 as the dividing line for reverse-splicing fitness, with the line itself on the T side and lower values as F.

Here are 3 variants together with their reported answers.
C82U A111G A120U A145C C150U C169U U176G : F
A111U A120C A145G C169U U176C : T
C82G A111G A145U C169G U176G : F

Input: Decide: is the reported value of reverse-splicing fitness for A111G A120C U176C equal to or greater than 0.008?
Output: T

Input: Form field: reverse-splicing fitness at least 0.008? Entry: C82U A111G A120C A145U C150A C169U U176A
Output: T

Input: Please tell me: is the variant C82U A111C A120U A145U C150A C169G U176G at or over 0.008 in terms of reverse-splicing fitness?
Output: F

Input: Evaluate C82U A111U A145G C150G C169G U176A : reverse-splicing fitness at minimum 0.008?
Output: T

Input: Please check the record C82G A111G A120U A145C C150G C169A U176G and state if its reverse-splicing fitness is at or above 0.008.
Output: F

Input: Does reverse-splicing fitness meet or surpass 0.008 for C82G A111C A120C A145G C150A ?
Output: T

Input: Is reverse-splicing fitness for A111G A120C A145C C150G C169U U176G at or above 0.008?
Output: F

Input: Would you say C82A A111C A120G C169G U176A shows reverse-splicing fitness at minimum 0.008?
Output: T

Input: Is reported reverse-splicing fitness greater than or equal to 0.008 here: C82A U176G
Output: T

Input: Would you say C82A A111C A120U C169G shows reverse-splicing fitness at minimum 0.008?
Output: F

Input: reverse-splicing fitness >= 0.008 for C82G A120U A145G C150U C169U U176C ?
Output: F

Input: Assess whether reported reverse-splicing fitness for C82A A111G A120G A145G U176A sits at 0.008 or higher.
Output: T

Input: Check if reverse-splicing fitness >= 0.008 (inclusive). Item: C82A A111U A145C C150U C169U U176A
Output: T

Input: hey, is reverse-splicing fitness for this one >= 0.008? C82U A120U A145G C150A C169G U176C
Output: F

Input: Is it the case that C82G A111U A120U A145C C150G U176G has reverse-splicing fitness reaching or exceeding 0.008?
Output: F

Input: Is reverse-splicing fitness at least 0.008? Consider C82U A111G A120G A145G C169G
Output: T

Input: In plain terms: is recorded reverse-splicing fitness at least 0.008 for C82G A111U A120U A145C C150G C169G U176G ?
Output: F

Input: Form field: reverse-splicing fitness at least 0.008? Entry: C82U A111U A120G A145C C169U U176G
Output: F
